Tested on: IGROV1 ovarian
assay.name: NCI-60 one-dose screen, 48 h
experimental.conditions: 10 µM unless noted
The panel holds about 83,000 compounds, 20% with a hit somewhere; the sample as a whole holds those more often. The source made the active and inactive calls. Rule for the calls: active = growth percent below 10; inactive = the rest.
Pick one: active, inactive

**Query** Per the assay record, what outcome was assigned to CN(C)CCCC1(c2ccc(F)cc2)OCc2cc(-c3ccc(C(F)(F)F)nc3)ccc21 (stereo not drawn) ?
**Result** inactive

**Query** Please let me know the test result on file for COC(=O)[C@]12CC[C@@H](C)[C@H](C)[C@@H]1C1=CC[C@@H]3[C@@]4(C)C(c5ncon5)=C[C@@](C)(CO)C4=CC[C@@]3(C)[C@]1(C)CC2 .
**Result** active
